tested on: CCRF-CEM; assay: NCI tumour cell line growth inhibition, 48 h
Active and inactive are the calls of the source. Cut-off read from the data, not from the text of the source: active = GI50 up to about 1.1 µM and inactive = higher.
The reply should name one outcome from yes for active, no for inactive

Answered cases to consult:
[
  {
    "COMPOUND": "C[C@@H]1S[C@H](c2c(F)cccc2Cl)n2c1nc1ccccc12",
    "QUALITATIVE LABEL": "no"
  },
  {
    "COMPOUND": "CCOC(=O)Nc1nc2cc(Cn3cccc3)ccc2[nH]1",
    "QUALITATIVE LABEL": "yes"
  },
  {
    "COMPOUND": "CC1(C)COC(c2cccc3c2C(=O)c2cccc(Cl)c2-3)=N1",
    "QUALITATIVE LABEL": "no"
  },
  {
    "COMPOUND": "CC1CC[P+](c2ccccc2)(c2ccccc2)c2c1ccc1ccccc21 (stereo not given)",
    "QUALITATIVE LABEL": "no"
  }
]

Then this compound:
Recorded test outcome, item COc1ccc(C2=CC(C(C)=C(C(N)=O)C(N)=O)C=C(c3ccc(Br)cc3)C2)c(OC)c1 (stereo not given)
no
